src = patent US7163952B2

metric.name: melting point

{"molecule.smiles": "O=C(O)c1ccc(C2(c3nc(-c4ccc(OCc5ccc(C6CCCCC6)cc5)cc4)cs3)CCCCC2)cc1", "result": "222 to 224 °C"}
{"molecule.smiles": "Cc1nc(N(C)Cc2ccc(C3CCCCC3)cc2)sc1-c1csc(N(C)Cc2ccc(C(=O)O)cc2)n1", "result": "172 to 173 °C"}
{"molecule.smiles": "O=C(O)c1ccc(N(CC2CCCCC2)c2nc(-c3nc4ccc(OCc5ccc(Cl)c(Cl)c5)cc4o3)cs2)cc1", "result": "182 to 189 °C"}

Provide reported melting point for each item, in the same order as listed.
1. CN(Cc1ccc(C(=O)O)cc1)c1nc(-c2ccc(OCc3ccc(C4CCCCC4)cc3)cc2)cs1.O=S(=O)(O)O
2. CN(Cc1ccc(C(=O)O)cc1)c1nc(-c2cc(Cl)ccc2OCc2ccccc2)cs1

# output
182 to 183 °C
169 to 171 °C

Provide reported melting point for each item, in the same order as listed.
1. CC(C)(c1ccc(C(=O)O)cc1)c1nc(-c2ccc(OCc3ccc(-c4ccccc4)cc3)cc2)cs1
2. CC(C)N(Cc1ccc(C(=O)O)cc1)c1nc(-c2ccc(NS(=O)(=O)c3ccc(Cl)c(Cl)c3)cc2)cs1
3. O=C(O)c1ccc(N(CCC2CCCCC2)c2nc(-c3cc(F)ccc3OCc3ccccc3)cs2)cc1

# output
1: 230 °C (dec.); 2: 193 to 195 °C; 3: 125 to 130 °C

Provide reported melting point for each item, in the same order as listed.
1. CN(C)c1ccc(CCN(C)c2ccc(-c3csc(N(C)Cc4ccc(C(=O)O)cc4)n3)cc2)cc1
2. CC(C)N(Cc1ccc(C(=O)O)cc1)c1nc(-c2ccc(N(Cc3ccccc3)Cc3ccccc3)cc2)cs1
3. O=C(O)CCCN(c1ccc(C(=O)O)cc1)c1nc(-c2ccc(OCc3ccc(C4CCCCC4)cc3)cc2)cs1
4. CN(CCCc1ccccc1)c1ccc(-c2csc(N(C)Cc3ccc(C(=O)O)cc3)n2)cc1
5. CC(=O)OCOC(=O)c1ccc(CN(C)c2nc(-c3ccc(OCc4ccc(C5CCCCC5)cc4)cc3)cs2)cc1
6. CN(Cc1ccc(C2CCCCC2)cc1)c1ccc(-c2csc(N(C)Cc3ccc(C(=O)O)cc3)n2)cc1.CS(=O)(=O)O
7. CC(C)N(Cc1ccc(C(=O)O)cc1)c1nc(-c2ccc(OCc3ccc(Cl)c(Cl)c3)cc2)cs1
8. O=C(O)c1ccc(N(CCC2CCCCC2)c2nc(-c3nc4ccc(OCc5ccc(Cl)c(Cl)c5)cc4o3)cs2)cc1

# output
164 to 167 °C
144 to 146 °C
230 °C (dec.)
127 to 128 °C
100 to 104 °C
167 to 170 °C
180 to 181 °C
195 to 197 °C

# input Identify melting point associated with the compound "CN(c1ccc(C(=O)O)cc1)c1nc(-c2ccc(NCc3ccc(C4CCCCC4)cc3)cc2)cs1.CS(=O)(=O)O"
# output 231 to 233 °C

###

# Test system: male ob/ob mice
# assay.protocol: Hypoglycemic action in ob/ob mice, oral administration
# Type: in vivo
# stated.conditions: Mus musculus, dose 1 mg/kg oral, fasting, 3 hr after administration, relative to control group, read-out: Decrease in blood glucose level (%) 3 hr
Would you mind telling me the reported inhibition in vivo at 1 mg/kg of each entry?
Numbers only, in %.

Some compounds with known inhibition in vivo at 1 mg/kg results, for comparison:
{"molecule.smiles": "CN(Cc1ccc(C2CCC(C)(C)CC2)cc1)c1ccc(-c2csc(N(C)Cc3ccc(C(=O)O)cc3)n2)cc1", "system.tested": "male ob/ob mice", "inhibition in vivo at 1 mg/kg, %": 32}
{"molecule.smiles": "CN(Cc1ccc(C2CCCCC2)cc1)c1ccc(-c2csc(N(C)Cc3ccc(C(=O)O)cc3)n2)cc1", "system.tested": "male ob/ob mice", "inhibition in vivo at 1 mg/kg, %": 35}

Provide reported inhibition in vivo at 1 mg/kg for each item, in the same order as listed.
1. CN(c1ccc(C(=O)O)cc1)c1nc(-c2ccc(NCc3ccc(C4CCCCC4)cc3)cc2)cs1
2. CN(Cc1ccc(C(=O)O)cc1)c1nc(-c2ccc(OCc3ccc(C4CCCCC4)cc3)cc2)cs1

# output
27
37

###

Would you mind telling me the reported melting point of each entry?
Structures can show the parent of a compound that is named as a salt.

Some molecules with known melting point results, for comparison:
{"molecule": "CC(C)CN(c1ccc(C(=O)O)cc1)c1nc(-c2ccc(NC(=O)c3ccccc3)cc2)cs1", "result": "234 to 235 °C"}
{"molecule": "O=C(O)c1ccc(N(CC2CCCCC2)c2nc(-c3ccc(NCc4ccc(Cl)c(Cl)c4)cc3)cs2)cc1", "result": "187 to 189 °C"}
{"molecule": "O=C(O)c1ccc(C2(c3nc(-c4ccc(OCc5ccc(Cl)c(Cl)c5)cc4)cs3)CCCCC2)cc1", "result": "168 to 171 °C"}
{"molecule": "O=C(O)c1ccc(N(CC2CCCCC2)c2nc(-c3cc(Cl)ccc3OCc3ccccc3)cs2)cc1", "result": "184 to 185 °C"}

Provide reported melting point for each item, in the same order as listed.
1. CC(C)N(c1ccc(OCC(=O)O)cc1)c1nc(-c2ccc(NC(=O)c3ccc(N4CCCCC4)cc3)cc2)cs1
2. CN(Cc1ccc(C(=O)O)cc1)c1nc(-c2ccc(NCc3ccc(C4CCCCC4)cc3)cc2)cs1
3. CN(Cc1ccc(CC(C)(C)C)cc1)c1ccc(-c2csc(N(C)Cc3ccc(C(=O)O)cc3)n2)cc1
4. O=C(O)c1ccc(COc2ccc(-c3csc(Cc4ccc(C(=O)O)cc4)n3)cc2)cc1
5. CN(Cc1ccc(C(=O)O)cc1)c1nc(-c2ccc(CN3CCN(c4ccccc4)CC3)cc2)cs1

# output
220 °C (dec.)
184 °C (dec.)
176 to 177 °C
270 °C (dec.)
159 to 163 °C

Provide reported melting point for each item, in the same order as listed.
1. CCCC(CCC)c1ccc(CN(C)c2ccc(-c3csc(N(C)Cc4ccc(C(=O)O)cc4)n3)cc2)cc1
2. CN(c1ccc(C(=O)O)cc1)c1nc(-c2ccc(NC(=O)c3ccc(C4CCCCC4)cc3)cc2)cs1
3. CC(C)N(Cc1ccc(C(=O)O)cc1)c1nc(-c2ccc(NC(=O)c3ccc(N4CCCCC4)cc3)cc2)cs1
4. O=C(O)c1ccc(CN(CC2CCCCC2)c2nc(-c3nc4ccc(OCCc5ccccc5)cc4o3)cs2)cc1
5. CN(Cc1ccc(C(=O)O)cc1)c1nc(-c2ccc(OCc3ccc(C4CCCCC4)cc3)cc2)cs1 (as salt: hydrochloride)
6. CCOC(=O)OC(C)OC(=O)c1ccc(CN(C)c2nc(-c3ccc(OCc4ccc(C5CCCCC5)cc4)cc3)cs2)cc1 (stereo not drawn)

# output
114 to 115 °C
250 °C (dec.)
234 °C (dec.)
105 to 108 °C
174 °C (dec.)
99 to 101 °C

###

# system.tested: recombinant human protein tyrosine phosphatase 1B (Homo sapiens, UniProt P18031)
# Construct: purchased UBI
# Sequence (P18031 whole entry): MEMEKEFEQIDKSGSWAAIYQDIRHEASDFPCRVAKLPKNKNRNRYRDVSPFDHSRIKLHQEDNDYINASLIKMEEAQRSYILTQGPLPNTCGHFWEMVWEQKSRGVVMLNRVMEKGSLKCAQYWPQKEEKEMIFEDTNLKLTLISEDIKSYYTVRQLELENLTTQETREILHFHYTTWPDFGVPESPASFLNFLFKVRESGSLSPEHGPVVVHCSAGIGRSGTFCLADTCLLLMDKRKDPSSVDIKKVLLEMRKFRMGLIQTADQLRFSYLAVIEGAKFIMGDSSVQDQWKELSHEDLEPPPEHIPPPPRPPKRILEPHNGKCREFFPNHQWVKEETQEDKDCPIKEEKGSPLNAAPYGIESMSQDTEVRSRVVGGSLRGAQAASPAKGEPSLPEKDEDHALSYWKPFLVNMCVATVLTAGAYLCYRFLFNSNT
# assay.protocol: Protein tyrosine phosphatase 1B inhibitory action (malachite green, phosphorylated insulin receptor peptide substrate)
# Type: biochemical
# stated.conditions: recombinant human PTP1B, 60 min room temperature, absorbance at 650 nm
Would you mind telling me the reported IC50 of each entry?
Give bare numbers, in µM.

{"compound": "CC1CCC(c2ccc(CN(C)c3ccc(-c4csc(N(C)Cc5ccc(C(=O)O)cc5)n4)cc3)cc2)CC1 (stereo not shown)", "IC50 [µM]": 0.15}

Provide reported IC50 for each item, in the same order as listed.
1. CN(Cc1ccc(C2CCC(F)(F)CC2)cc1)c1ccc(-c2csc(N(C)Cc3ccc(C(=O)O)cc3)n2)cc1
2. CN(c1ccc(C(=O)O)cc1)c1nc(-c2ccc(NCc3ccc(C4CCCCC4)cc3)cc2)cs1
3. CCCC(CCC)c1ccc(CN(C)c2ccc(-c3csc(N(C)Cc4ccc(C(=O)O)cc4)n3)cc2)cc1

# output
1: 0.49; 2: 0.5; 3: 0.15

###

metric.name: melting point

{"molecule.smiles": "O=C(O)c1ccc(CN(CCC2CCCCC2)c2nc(-c3cc(Cl)ccc3OCc3ccc(C(F)(F)F)cc3)cs2)cc1", "melting point": "171 to 172 °C"}

Provide reported melting point for each item, in the same order as listed.
1. CN(c1ccc(C(=O)O)cc1)c1nc(-c2cccc(OCc3ccc(C4CCCCC4)cc3)c2)cs1
2. O=C(O)c1ccc(Nc2nc(-c3cc(Cl)ccc3OCc3ccccc3)cs2)cc1
3. O=C(O)c1cccc(Nc2nc(-c3ccc(NC(=O)c4ccc(C5CCCCC5)cc4)cc3)cs2)c1
4. O=C(O)c1ccc(N(CCC2CCCCC2)c2nc(-c3cc(Cl)ccc3OCc3ccc(Cl)c(Cl)c3)cs2)cc1
5. CCCCN(c1ccc(C(=O)O)cc1)c1nc(-c2cc(Cl)ccc2OCc2ccc(C(F)(F)F)cc2)cs1
6. CC(C)N(c1ccc(C(=O)O)cc1)c1nc(-c2ccc(NC(=O)c3ccc(C4CCCCC4)cc3)cc2)cs1
7. CN(c1ccc(C(=O)O)cc1)c1nc(-c2ccc(NCc3ccc(C(F)(F)F)cc3)cc2)cs1
8. O=C(O)c1ccc(C2(c3nc(-c4ccc(OCc5ccc(C6CCCCC6)cc5)cc4)cs3)CCCC2)cc1

# output
["250 °C (dec.)", "208 to 211 °C", "230 °C (dec.)", "195 to 198 °C", "216 to 218 °C", "230 °C (dec.)", "230 °C (dec.)", "248 to 251 °C"]

Provide reported melting point for each item, in the same order as listed.
1. O=C(O)c1ccc(N(CC2CCCCC2)c2nc(-c3cccc(OCc4ccc(C5CCCCC5)cc4)c3)cs2)cc1
2. CN(Cc1ccc(C2CCC(Cl)(Cl)CC2)cc1)c1ccc(-c2csc(N(C)Cc3ccc(C(=O)O)cc3)n2)cc1
3. CC(C)N(c1ccc(C(=O)O)cc1)c1nc(-c2ccc(NC(=O)c3ccc(N4CCCCC4)cc3)cc2)cs1.Cl
4. CN(CCCCc1ccccc1)c1ccc(-c2csc(N(C)Cc3ccc(C(=O)O)cc3)n2)cc1
5. CC(C)N(c1cccc(C(=O)O)c1)c1nc(-c2ccc(NC(=O)c3ccc(N4CCCCC4)cc3)cc2)cs1.Cl

# output
1. 195 to 197 °C
2. 210 to 213 °C
3. 230 °C (dec.)
4. 146 to 147 °C
5. 220 °C (dec.)

# input Identify melting point associated with the compound "CC(C)N(c1ccc(C(=O)[O-])cc1)c1nc(-c2ccc(NC(=O)c3ccc(N4CCN(C)CC4)cc3)cc2)cs1.[Na+]"
# output 230 °C (dec.)
